# IC50 against Plasmepsin II (Plasmodium falciparum), merged from multiple literature sources

# CHEMICAL_STRUCTURE, BOUND_TYPE, IC50 (nM)
measured = [
    ("CCCN(CCC)C(=O)c1cc(C(=O)N[C@@H](Cc2ccccc2)[C@@H](O)CNC(C)(C)c2cccc(OC)c2)cc(N2CCCCS2(=O)=O)c1", "=", 14000),
    ("O=C(N[C@@H](Cc1ccccc1)[C@@H](O)[C@H](O)[C@H](Cc1ccccc1)NC(=O)c1ccc(F)cc1Cl)c1ccc(F)cc1Cl", ">", 25000),
    ("CCCCCc1ccc(C(=O)N(CCN(CCCC)CCCC)Cc2ccc(-c3ccc(CC(=O)O)cc3)cc2)cc1", "=", 463),
    ("CCCN(CCC)C(=O)c1cc(C(=O)N[C@@H](Cc2ccccc2)[C@H](O)CNC(C)(C)c2ccccn2)cc(N2CCCCC2)c1", "=", 800),
]
